Data credit: patent US20260167714A1

- Target of assay: T1, human ILT4 expressed on cells (human, UniProt Q8N423 22-597)
- T1 construct: whole, on cells; The same entry is used for endogenous ILT4 of human macrophages; also called CHO-S/ILT4 cells; ILT4-CHO cells
- T1 sequence (Q8N423 22-597): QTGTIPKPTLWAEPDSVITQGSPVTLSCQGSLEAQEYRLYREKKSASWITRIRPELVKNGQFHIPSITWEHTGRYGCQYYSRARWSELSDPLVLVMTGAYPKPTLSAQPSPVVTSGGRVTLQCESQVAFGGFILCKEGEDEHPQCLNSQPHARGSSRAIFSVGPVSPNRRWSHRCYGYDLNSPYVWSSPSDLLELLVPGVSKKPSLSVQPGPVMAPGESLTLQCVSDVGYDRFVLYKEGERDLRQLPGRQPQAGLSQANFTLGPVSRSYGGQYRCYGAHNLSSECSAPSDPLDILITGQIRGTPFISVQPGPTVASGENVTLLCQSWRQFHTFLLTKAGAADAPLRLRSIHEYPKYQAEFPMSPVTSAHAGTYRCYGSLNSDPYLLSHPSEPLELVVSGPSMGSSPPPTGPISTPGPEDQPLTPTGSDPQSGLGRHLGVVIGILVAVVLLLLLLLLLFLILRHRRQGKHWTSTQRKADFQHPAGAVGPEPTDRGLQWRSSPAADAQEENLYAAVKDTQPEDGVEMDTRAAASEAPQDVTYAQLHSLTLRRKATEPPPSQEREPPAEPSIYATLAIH
- Experiment: flow based HLA-G blocking assay
Experimental endpoint: IC50
Entry format: amount then unit.

Given the entry Hz45.01-LALA (antibody, human IgG1, kappa, L234A L235A, V domains shown, Humanized L45S4, human IgG1 L234A/L235A, kappa; also called Humanized 45_01; Hu IgG 45_01 LALA) VH: QVQLVQSGAEVKKPGASVKVSCKASGYTFTDYYMNWVRQAPGQRLEWIGDINPNNGGTSYNQKFKGRATITVDTSASTAYMELSSLRSEDTAVYYCARGGAELTGTYWYFDVWGQGTTVTVSS VL: DIQMTQSPSSLSASVGDRVTITCRASENIYSNLAWYQQKPGKAPKVLVYGATNLADGVPSRFSGSGSGTEYTLTISSLQPEDFATYYCQHFWDSPFTFGGGTKVEIKR , report its measured IC50.
0.092 µg/mL
